# System: peripheral blood mononuclear cells (PBMC)
# measurement-notes: MTT cell viability assay, PBMC
# Type: cell-based
# condition-details: PBMC, 24 h exposure
Entries whose IC50 is below 30 µM take 1; entries at or above 30 µM take 0.

compound | system | class
CC1(C)CC[C@]2(C(=O)O)CC[C@]3(C)C(=CC[C@@H]4[C@@]5(C)CC[C@H](O)C(C)(C)[C@@H]5CC[C@]43C)[C@@H]2C1 [OA, oleanolic acid, reference compound] | peripheral blood mononuclear cells (PBMC) | 0
CC1(C)CC[C@]2(C(=O)OCc3ccccc3)CC[C@]3(C)C(=CC[C@@H]4[C@@]5(C)CC[C@H](O)C(C)(C)[C@@H]5CC[C@]43C)[C@@H]2C1 | peripheral blood mononuclear cells (PBMC) | 0
CC1(C)CC[C@]2(C(=O)OCc3cc(F)cc(F)c3)CC[C@]3(C)C(=CC[C@@H]4[C@@]5(C)CC[C@H](O)[C@@](C)(C=O)[C@@H]5CC[C@]43C)[C@@H]2C1 | peripheral blood mononuclear cells (PBMC) | 1
CC1(C)CC[C@]2(C(=O)OCc3cc(C(F)(F)F)cc(C(F)(F)F)c3)CC[C@]3(C)C(=CC[C@@H]4[C@@]5(C)CC[C@H](O)[C@@](C)(C=O)[C@@H]5CC[C@]43C)[C@@H]2C1 | peripheral blood mononuclear cells (PBMC) | 0

I'd appreciate it if you could check whether "CC1(C)CC[C@]2(C(=O)OCc3ccc(C#N)cc3)CC[C@]3(C)C(=CC[C@@H]4[C@@]5(C)CC[C@H](O)[C@@](C)(C=O)[C@@H]5CC[C@]43C)[C@@H]2C1" has IC50 smaller than 30 µM.
1

Another compound to look at: "C[C@H]1[C@H](C)CC[C@]2(C(=O)OCc3ccccc3)CC[C@]3(C)C(=CC[C@@H]4[C@@]5(C)CC[C@H](O)C(C)(C)[C@@H]5CC[C@]43C)[C@H]12"
0

Another compound to look at: CC1(C)CC[C@]2(C(=O)O)CC[C@]3(C)C(=CC[C@@H]4[C@@]5(C)CC[C@H](O)[C@@](C)(CO)[C@@H]5CC[C@]43C)[C@@H]2C1 [HE, hederagenin, reference compound]
0

Another compound to look at: "CC1(C)[C@@H](O)CC[C@]2(C)[C@H]3C(=O)C=C4[C@@H]5C[C@@](C)(C(=O)OCc6ccccc6)CC[C@]5(C)CC[C@@]4(C)[C@]3(C)CC[C@@H]12"
0

Another compound to look at: "CC1(C)CC[C@]2(C(=O)OCc3ccccc3)CC[C@]3(C)C(=CC[C@@H]4[C@@]5(C)CC[C@H](O)[C@@](C)(CO)[C@@H]5CC[C@]43C)[C@@H]2C1"
1

====

Hi there, I'd appreciate the recorded pIC50 for every entry that follows.
# system: ABL1 kinase (Homo sapiens)
# Construct: purchased Promega, Madison, WI, USA
# Sequence (P00519 whole entry): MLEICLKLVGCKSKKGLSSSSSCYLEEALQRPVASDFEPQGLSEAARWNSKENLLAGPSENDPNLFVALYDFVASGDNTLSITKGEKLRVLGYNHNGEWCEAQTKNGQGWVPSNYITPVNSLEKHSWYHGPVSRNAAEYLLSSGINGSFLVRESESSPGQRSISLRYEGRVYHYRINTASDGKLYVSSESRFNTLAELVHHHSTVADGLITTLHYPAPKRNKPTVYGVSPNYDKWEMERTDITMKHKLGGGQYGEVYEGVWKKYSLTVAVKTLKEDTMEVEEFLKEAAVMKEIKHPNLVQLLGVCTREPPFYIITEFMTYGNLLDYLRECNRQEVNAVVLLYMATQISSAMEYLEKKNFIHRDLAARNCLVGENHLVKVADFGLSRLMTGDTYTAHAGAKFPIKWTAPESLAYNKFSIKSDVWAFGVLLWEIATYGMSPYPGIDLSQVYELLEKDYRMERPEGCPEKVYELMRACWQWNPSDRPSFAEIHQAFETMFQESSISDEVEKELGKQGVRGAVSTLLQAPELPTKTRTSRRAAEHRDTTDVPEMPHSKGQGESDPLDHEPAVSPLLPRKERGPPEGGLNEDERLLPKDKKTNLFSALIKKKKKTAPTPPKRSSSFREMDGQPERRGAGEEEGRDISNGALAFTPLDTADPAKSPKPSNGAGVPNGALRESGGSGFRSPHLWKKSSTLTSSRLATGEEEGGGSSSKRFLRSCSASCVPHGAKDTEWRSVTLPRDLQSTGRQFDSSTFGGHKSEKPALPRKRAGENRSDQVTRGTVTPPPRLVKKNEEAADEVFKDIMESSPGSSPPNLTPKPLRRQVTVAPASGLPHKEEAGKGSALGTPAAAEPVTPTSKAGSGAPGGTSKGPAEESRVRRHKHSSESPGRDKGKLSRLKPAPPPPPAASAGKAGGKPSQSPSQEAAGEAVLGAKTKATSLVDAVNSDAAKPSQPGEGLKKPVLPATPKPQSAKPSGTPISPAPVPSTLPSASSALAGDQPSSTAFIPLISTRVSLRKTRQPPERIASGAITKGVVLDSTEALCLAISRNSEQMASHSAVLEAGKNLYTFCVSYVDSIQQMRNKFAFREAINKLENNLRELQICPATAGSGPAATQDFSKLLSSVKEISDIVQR
# measurement-notes: ABL1 kinase inhibition (ADP-Glo Kinase Assay)
# Assay type: biochemical
# condition-details: ADP-Glo, 1 h incubation, room temperature
# Procedure: The ABL1 kinase profiling assay protocol was applied according to the manufacturer`s instructions (Promega, Madison, WI, USA) with the modification proposed in [36]. […] After 1 h of incubation at room temperature, the activity of the ABL1 kinase was detected using the ADP-Glo Kinase Assay (Promega, Madison, WI, USA) and the inhibitory kinase activity of compounds in dose-response mode was measured by the Infinitive M1000 luminescence plate reader (Tecan, Groding, Austria).
Numbers only, as −log10 of the molar value.

Look up pIC50 for the entries below, preserving their order.
1. CC1(C)CC[C@]2(C(=O)OCc3ccccc3)CC[C@]3(C)C(=CC[C@@H]4[C@@]5(C)CC[C@H](O)C(C)(C)[C@@H]5CC[C@]43C)[C@@H]2C1 [PT5, Oleanolic acid benzyl ester]
2. CC1(C)CC[C@]2(C(=O)OCc3cc(C(F)(F)F)cc(C(F)(F)F)c3)CC[C@]3(C)C(=CC[C@@H]4[C@@]5(C)CC[C@H](O)[C@@](C)(C=O)[C@@H]5CC[C@]43C)[C@@H]2C1 [GP2]
3. CC1(C)CC[C@]2(C(=O)OCc3ccc(C#N)cc3)CC[C@]3(C)C(=CC[C@@H]4[C@@]5(C)CC[C@H](O)[C@@](C)(C=O)[C@@H]5CC[C@]43C)[C@@H]2C1 [GP5, Gypsogenin 4-cyanobenzyl ester]

[5.84, 5.14, 5.21]

====

# Tested on: K562 cells
# measurement-notes: Cell death detection (Hoechst 33342/annexin V/ethidium homodimer III staining)
# Assay type: cell-based, human
# condition-details: K562, IC50 concentration, 8 h
result-type: apoptotic effects on CML cell line (%)
Numbers only, in %.

Take a look at these entries with their results.
compound | result-units | quantitative-readout
CC1(C)CC[C@]2(C(=O)OCc3cc(C(F)(F)F)cc(C(F)(F)F)c3)CC[C@]3(C)C(=CC[C@@H]4[C@@]5(C)CC[C@H](O)[C@@](C)(C=O)[C@@H]5CC[C@]43C)[C@@H]2C1 [GP2] | % | 24
Cc1ccc(NC(=O)c2ccc(CN3CCN(C)CC3)cc2)cc1Nc1nccc(-c2cccnc2)n1 [Imatinib, reference compound] | % | 18
CC1(C)CC[C@]2(C(=O)OCc3ccccc3)CC[C@]3(C)C(=CC[C@@H]4[C@@]5(C)CC[C@H](O)C(C)(C)[C@@H]5CC[C@]43C)[C@@H]2C1 [PT5, Oleanolic acid benzyl ester] | % | 14

Please look up its apoptotic effects on CML cell line: CC1(C)CC[C@]2(C(=O)OCc3ccc(C#N)cc3)CC[C@]3(C)C(=CC[C@@H]4[C@@]5(C)CC[C@H](O)[C@@](C)(C=O)[C@@H]5CC[C@]43C)[C@@H]2C1 [GP5, Gypsogenin 4-cyanobenzyl ester]
9.5

====

Hi there, I'd appreciate the recorded IC50 for every entry that follows.
# Tested on: peripheral blood mononuclear cells (PBMC)
# measurement-notes: MTT cell viability assay, PBMC
# Format: cell-based
# condition-details: PBMC, 24 h exposure
One number for each entry, in µM.

Take a look at these entries with their results.
molecule | result-units | quantitative-readout
C[C@H]1[C@H](C)CC[C@]2(C(=O)OCc3ccccc3)CC[C@]3(C)C(=CC[C@@H]4[C@@]5(C)C[C@@H](O)[C@H](O)[C@@](C)(CO)[C@@H]5CC[C@]43C)[C@H]12 [PT1, Asiatic acid benzyl ester] | µM | 15.5
COc1ccc(COC(=O)[C@]23CCC(C)(C)C[C@H]2C2=CC[C@@H]4[C@@]5(C)CC[C@H](O)[C@@](C)(C=O)[C@@H]5CC[C@@]4(C)[C@]2(C)CC3)cc1 [GP1, Gypsogenin 4-methoxybenzyl ester] | µM | 25.1
C=C(C)[C@@H]1CC[C@]2(C(=O)OCc3ccccc3)CC[C@]3(C)[C@H](CC[C@@H]4[C@@]5(C)CC[C@H](O)C(C)(C)[C@@H]5CC[C@]43C)[C@@H]12 [PT2, Betulinic acid benzyl ester] | µM | 28

# returns recorded IC50 (system: peripheral blood mononuclear cells (PBMC)) for CC1(C)CC[C@]2(C(=O)OCc3ccc(C(F)(F)F)cc3)CC[C@]3(C)C(=CC[C@@H]4[C@@]5(C)CC[C@H](O)[C@@](C)(C=O)[C@@H]5CC[C@]43C)[C@@H]2C1 [GP3]
23.2

====

# Tested on: A549 human lung carcinoma
# measurement-notes: MTT cell viability assay, A549
# Type: cell-based
# condition-details: Homo sapiens, A549; MTT, 24 h exposure
# Method: A549 human lung carcinoma and HeLa human cervical carcinoma cell lines were cultured in Dulbecco’s Modified Eagle Medium (DMEM). […] The cells were exposed to various concentrations (1–100 μM) of the compounds for 24 h at 37 °C. […] The absorbance of the solution was determined on the Infinitive M1000 (Tecan, Mannedorf, Switzerland) plate reader at a wavelength of 550 nm with background subtraction at 630 nm.
Hi there, I'd appreciate the recorded IC50 for every entry that follows.

compound | IC50
CC1(C)CC[C@]2(C(=O)OCc3cc(C(F)(F)F)cc(C(F)(F)F)c3)CC[C@]3(C)C(=CC[C@@H]4[C@@]5(C)CC[C@H](O)[C@@](C)(C=O)[C@@H]5CC[C@]43C)[C@@H]2C1 [GP2] | > 100 µM
CC1(C)CC[C@]2(C(=O)OCc3ccc(C#N)cc3)CC[C@]3(C)C(=CC[C@@H]4[C@@]5(C)CC[C@H](O)[C@@](C)(C=O)[C@@H]5CC[C@]43C)[C@@H]2C1 [GP5, Gypsogenin 4-cyanobenzyl ester] | 24.6 µM

Here's the next entry for you.
Please look up its IC50: CC1(C)CC[C@]2(C(=O)OCc3ccccc3)CC[C@]3(C)C(=CC[C@@H]4[C@@]5(C)CC[C@H](O)C(C)(C)[C@@H]5CC[C@]43C)[C@@H]2C1 [PT5, Oleanolic acid benzyl ester]
> 100 µM
